- Test system: IGROV1 ovarian
- RUN DESCRIPTION: NCI tumour cell line growth inhibition, 48 h; in the data active = GI50 below about 0.43 µM; inactive = the rest
Please answer using one outcome listed in active, inactive

O=C1OCC2=C1C(c1ccc(Cl)c(Cl)c1)c1cc3c(cc1N2CCO)CCC3 (stereo not drawn)
inactive
NC(N)=N/N=C/c1ccc(-c2ccc(-c3cc(Cl)cc(Cl)c3)s2)cc1
inactive
CC1(C)[C@@H](OC(=O)CCC(=O)O)CC[C@]2(C)[C@H]3C(=O)C=C4[C@@H]5C[C@@](C)(C(=O)O)CC[C@]5(C)CC[C@@]4(C)[C@]3(C)CC[C@@H]12
inactive
Clc1ccc(-c2cc(-c3ccccc3)nc(NCCNc3ccnc4cc(Cl)ccc34)n2)cc1
inactive
Clc1ccc(OCc2nnc3n2N=C(c2ccc(Cl)cc2Cl)CS3)cc1
inactive
COc1ccc(/C=C/C(=O)c2ccc(OC)c(OC)c2)cc1O
inactive

# fetch the recorded call for COc1ccc(/C=C2\C=C(c3ccccc3)N(CCc3ccccc3)C2=O)cc1OC here
inactive

# fetch the recorded call for CCCCCCCCC(=O)OCC(CS[As](C)C)OC(=O)CCCCCCCC (stereo not drawn) here
inactive

# fetch the recorded call for Cn1cc(C2=C(c3cn(C)c4ccccc34)C(=O)NC2=O)c2ccccc21 here
inactive

# fetch the recorded call for O=C(c1ccco1)c1c(C(F)(F)F)n([O-])c2ccc(Cl)cc2[n+]1=O here
active

# fetch the recorded call for COc1cc(-c2cc(-c3cc(OC)c(OC)c(OC)c3)nc3nc(N)[nH]c(=O)c23)ccc1Oc1ccnc2cc(Cl)ccc12 here
inactive

# fetch the recorded call for O=C(Nc1ccccc1)c1cc(S(=O)(=O)Nc2nc3ccccc3o2)c(SCc2ccccc2)cc1Cl here
inactive

* * *

- Tested on: SK-OV-3 ovarian
- RUN DESCRIPTION: NCI tumour cell line growth inhibition, 48 h
The entries below come with measured TGI values attached.

What measured TGI goes with COc1ccc2cc(-c3nc(N)nc(N4N=C(C)CC4(C)C)n3)c(=N)oc2c1 ?
53.9 µM

What measured TGI goes with COc1cc(/C=C/C(=O)N2CCN(C(=O)c3cc(OC)c(OC)c(OC)c3)CC2)ccc1OCCCOc1cc2c(cc1OC)C(=O)N1CCC[C@H]1C=N2 ?
> 71.3 µM

What measured TGI goes with COC(=O)[C@H](Cc1ccc(OC(C)(C)C)cc1)N[C@H](C)C(=O)N[C@@H](Cc1ccccc1)C(=O)OCc1ccccc1 ?
> 100 µM

What measured TGI goes with COC(=O)C(Cc1nc2ccccc2nc1C)/C(=N\NC(N)=O)C(=O)Nc1cccc([N+](=O)[O-])c1 (stereo not drawn) ?
> 100 µM

What measured TGI goes with COc1cc(-c2cc(-c3cc(OC)c(OC)c(OC)c3)nc3nc(N)[nH]c(=O)c23)ccc1Oc1ccnc2cc(Cl)ccc12 ?
9.36 µM

* * *

- Tested on: U251 CNS
The entries below come with measured GI50 values attached.

Cc1ccc(Cl)c(Nc2ccccc2C(=O)O)c1Cl
26000 nM
O=C1c2cccc(NCCN=Cc3ccccc3O)c2C(=O)c2c(NCCN=Cc3ccccc3O)cccc21
521 nM
CCN(CC)C1CCC(Nc2c(C(C)=O)cnc3ccc(-c4ccc(O)c(Cl)c4)cc23)CC1 (centres undefined)
1160 nM
COc1cc(/C=C2\C[C@H]3[C@@H]4CC=C5C[C@@H](O)CC[C@]5(C)[C@H]4CC[C@]3(C)[C@H]2O)ccc1OCCCn1ccnc1
923 nM
Cn1c(NCC(O)CN2CCCC2)cc(=O)n(C)c1=O (centres undefined)
> 100000 nM

Test system U251 CNS; read-out GI50; what value for Cc1cc(N(CCCl)CCCl)ccc1C=Nc1ccc2ccccc2c1 ?
9980 nM

Test system U251 CNS; read-out GI50; what value for CN(C)c1ccc(/C=C/C2=[N+](C)c3ccccc3C2(C)C)cc1 ?
353 nM

Test system U251 CNS; read-out GI50; what value for COc1cc(C(=O)N/N=C/c2ccc(N(C)C)cc2)cc(OC)c1OC ?
436 nM

Test system U251 CNS; read-out GI50; what value for O=S(=O)(/N=c1/scc(-c2ccccc2)n1-c1ccccc1)c1ccc(N2N=C3c4ccccc4CC3C2c2cccs2)cc1 (centres undefined) ?
31200 nM

Source of measurements: PubChem BioAssay (NCI)
